B1: Cytoplasmic polyadenylation element-binding protein 2, residues 513 to 575; numbered along this chain, Q7Z5Q1 (parent)
chain: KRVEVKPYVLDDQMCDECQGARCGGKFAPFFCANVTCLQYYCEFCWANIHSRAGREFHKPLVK

- Variants of: B1
- test_summary: abundance fitness (aPCA) (normalised: wild type 0, dead -1); higher = more abundant; growth selection in yeast, the domain comes from the species named
- condition_context: Homo sapiens
// reported abundance fitness per item
Please give the numeric answer without any surrounding text.

Worked examples follow.
| variant_string | abundance fitness |
| --- | --- |
| V5T | 0.006 |
| M14P | -0.007 |
| E56C | -0.195 |
| M14E | -0.073 |
| I49W | -0.268 |
| G24Y | -0.088 |
| P60R | -0.052 |
| P60E | -0.412 |
| G20D | -0.093 |
| D16Y | 0.192 |

Answer with reported abundance fitness of `P60H` -0.226

State its abundance fitness: `Y41N` -0.898

Fill in reported abundance fitness for this entry: `H58E` -0.442

Give the measured abundance fitness for `F31Q` -0.425

Note abundance fitness for the variant shown: `N48Y` -0.112

Complete the entry with abundance fitness for `E17D` -0.136

Return reported abundance fitness. Input variant: `R52Y` -0.088
